Reference source for all entries: PubChem BioAssay

Assay system: NADPH oxidase 5 (Homo sapiens) (UniProt Q96PH1)
Sequence (Q96PH1 whole entry, looked up): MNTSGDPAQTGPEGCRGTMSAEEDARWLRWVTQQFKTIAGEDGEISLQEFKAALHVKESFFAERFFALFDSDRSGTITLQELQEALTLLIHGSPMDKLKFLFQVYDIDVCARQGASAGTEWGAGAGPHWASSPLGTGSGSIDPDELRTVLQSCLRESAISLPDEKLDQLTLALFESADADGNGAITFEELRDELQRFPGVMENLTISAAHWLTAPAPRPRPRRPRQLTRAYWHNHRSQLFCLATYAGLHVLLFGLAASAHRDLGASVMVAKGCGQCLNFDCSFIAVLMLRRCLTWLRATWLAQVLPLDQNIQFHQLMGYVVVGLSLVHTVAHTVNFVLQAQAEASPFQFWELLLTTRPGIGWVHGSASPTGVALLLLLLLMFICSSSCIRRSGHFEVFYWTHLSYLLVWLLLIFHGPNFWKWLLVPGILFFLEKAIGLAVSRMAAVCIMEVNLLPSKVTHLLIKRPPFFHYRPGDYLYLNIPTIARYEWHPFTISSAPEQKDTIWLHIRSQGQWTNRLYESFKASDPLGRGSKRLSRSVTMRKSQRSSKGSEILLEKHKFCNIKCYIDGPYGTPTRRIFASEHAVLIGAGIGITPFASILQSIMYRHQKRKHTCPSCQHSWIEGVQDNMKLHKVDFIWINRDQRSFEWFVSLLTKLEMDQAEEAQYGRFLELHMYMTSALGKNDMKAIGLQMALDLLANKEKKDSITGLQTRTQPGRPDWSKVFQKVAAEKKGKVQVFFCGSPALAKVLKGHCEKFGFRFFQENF
Method: NOX5-dependent H2O2 signal modulators, primary screen, NOX inhibitor project, cell-based, HEK293-NOX5, Amplex Red fluorescence (AID 1161)
Protocol conditions: HEK293-NOX5, ionomycin, 45 min, higher = more signal
Reported z-score is given for each of the following molecules.
Lab note: record just the number, no unit beside it.

Worked examples follow.
C[N+](C)(C)CCCCCCNC(=O)[C@@H]1C[C@@H]2C(=O)N[C@@H](Cc3ccccc3)C(=O)N2[C@@H]1c1cccc(OCCO)c1; 1.05
CN1C(=O)C2C=CC(C(O)c3ccccc3)N(N(c3ccccc3)c3ccccc3)C2C1=O (centres undefined); 0.121
COC(=O)[C@@]1(CCS(=O)(=O)c2ccccc2)N=C(c2ccc(OCCCO)cc2)O[C@H]1c1ccccc1CN=[N+]=[N-]; -0.807

Query: Give recorded z-score with NADPH oxidase 5 (Homo sapiens) (UniProt Q96PH1) for the following molecule: CN(C)CCCCCCNC(=O)[C@H]1C[C@H]2C(=O)N[C@@H](CCCCN)C(=O)N2[C@H]1c1cccc(OCCO)c1
Reply: 1.24

----------
Method: splicing luciferase reporter signal modulators, primary screen, spliceosome inhibition project, cell-based, HEK293, splice +/- reporter (AID 1101);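 note: HEK293 cells carrying a splicing-competent luciferase reporter gene; test concentration not given here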
Protocol conditions: luminescence, 24 h, higher = more signal, called active from +8 up or from −8 down
Quantity kind: z-score
I only need the number, thanks.

Please review the following examples before continuing.
C#C[C@H](O[Si](C#Cc1ccc(Oc2ccccc2)cc1)(C(C)C)C(C)C)c1ccccc1; -0.855
CO[C@H]1O[C@H](CO)[C@@H](OC(=O)Nc2ccc(Oc3ccccc3)cc2)[C@H](OC(=O)Nc2ccc3c(c2)OCO3)[C@H]1OC(=O)Nc1ccc2c(c1)OCO2; -1.61
COCCOC(=O)N1C(=O)[C@@]2(c3cc(C#CC4(O)CCCCCC4)ccc31)[C@H](c1ccccc1OCCO)N1[C@H](c3ccccc3)[C@H](c3ccccc3)OC(=O)[C@H]1[C@@H]2C(=O)N1CCN(c2ncccn2)CC1; 0.514

Query: Please give the measured z-score for this molecule: O=C(c1ccccc1)N1C(=O)[C@]2(COC(c3ccc(OCCCO)cc3)=N2)Cc2ccccc21
Reply: 0.00817

Query: Next: COc1cc2c(cc1O)C(C1CC1)N(Cc1sc3ccccc3c1Cl)CC2 (configuration not stated)
Reply: -1.57

Query: Also need COc1ccc(C(O)C2C=CC3C(=O)N(Cc4ccccc4)C(=O)C3N2n2cnnc2)cc1OCc1ccccc1 (configuration not stated) , thanks.
Reply: -1.91

Query: And for C[C@@]1([C@@H](NC(=O)c2ccc(-c3ccccc3)cc2)c2ccc(Cl)cc2)C[C@H]1C1CCCCC1 ?
Reply: -1.82

----------
Method: RPMI8226 myeloma cell viability, profiling panel, resazurin fluorescence, basal, 24 h, PK04 Diversity Set (AID 1180);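 note: RPMI8826 multiple myeloma cell line at 5000 cells per well; test concentration not given here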
Protocol conditions: higher = more signal
Quantity kind: z-score
// keep it numeric: no unit symbol after the value

Some solved entries appear below for comparison.
C=C(COC)/C(=C/C[C@H](OC(C)=O)c1ccc(CO)o1)c1cc(C(=O)OC)ccc1OC; -0.746
CC(C)CNC(=O)[C@@]1(Cc2ccccc2I)c2ccccc2C(=O)N(C2CCCCC2)[C@H]1c1ccc(CO)cc1; -0.124
CC(C)NC(=O)[C@@]1(C)c2ccccc2C(=O)N(Cc2cc(C(F)(F)F)cc(C(F)(F)F)c2)[C@H]1c1ccc(CO)cc1; -0.148

Query: Which measured z-score value corresponds to CC1CC/C=C\[C@H]2OC34C=CCN(C(C)(C)C)C(=O)[C@H]3N(C(C)CO)C(=O)[C@@H]4C2C(=O)O1 (some centres not stated) ?
Reply: -0.0501

Query: Try O=C(OCc1ccccc1)C1=CCC2c3[nH]c4ccccc4c3C(=O)C1N2S(=O)(=O)c1ccccc1[N+](=O)[O-] (configuration not stated) next.
Reply: -0.878

Query: Field entry: CCCC#C[Si](O[C@H](CC)c1cn(Cc2cccc(Cl)c2)nn1)(C(C)C)C(C)C
Reply: 0.33

Query: Queued: C=CCC(OC(C)=O)[C@@H]1[C@@H](N(Cc2ccc(-c3ccccc3)cc2)C(=O)Cc2ccc(OC)cc2)c2cc(OCCCO)ccc2N1C(=O)Cc1ccc2ccccc2c1 (some centres not stated)
Reply: -0.798
